TARGET_ENTITY: ROCK2 protein (Homo sapiens)
Sequence (O75116 whole entry): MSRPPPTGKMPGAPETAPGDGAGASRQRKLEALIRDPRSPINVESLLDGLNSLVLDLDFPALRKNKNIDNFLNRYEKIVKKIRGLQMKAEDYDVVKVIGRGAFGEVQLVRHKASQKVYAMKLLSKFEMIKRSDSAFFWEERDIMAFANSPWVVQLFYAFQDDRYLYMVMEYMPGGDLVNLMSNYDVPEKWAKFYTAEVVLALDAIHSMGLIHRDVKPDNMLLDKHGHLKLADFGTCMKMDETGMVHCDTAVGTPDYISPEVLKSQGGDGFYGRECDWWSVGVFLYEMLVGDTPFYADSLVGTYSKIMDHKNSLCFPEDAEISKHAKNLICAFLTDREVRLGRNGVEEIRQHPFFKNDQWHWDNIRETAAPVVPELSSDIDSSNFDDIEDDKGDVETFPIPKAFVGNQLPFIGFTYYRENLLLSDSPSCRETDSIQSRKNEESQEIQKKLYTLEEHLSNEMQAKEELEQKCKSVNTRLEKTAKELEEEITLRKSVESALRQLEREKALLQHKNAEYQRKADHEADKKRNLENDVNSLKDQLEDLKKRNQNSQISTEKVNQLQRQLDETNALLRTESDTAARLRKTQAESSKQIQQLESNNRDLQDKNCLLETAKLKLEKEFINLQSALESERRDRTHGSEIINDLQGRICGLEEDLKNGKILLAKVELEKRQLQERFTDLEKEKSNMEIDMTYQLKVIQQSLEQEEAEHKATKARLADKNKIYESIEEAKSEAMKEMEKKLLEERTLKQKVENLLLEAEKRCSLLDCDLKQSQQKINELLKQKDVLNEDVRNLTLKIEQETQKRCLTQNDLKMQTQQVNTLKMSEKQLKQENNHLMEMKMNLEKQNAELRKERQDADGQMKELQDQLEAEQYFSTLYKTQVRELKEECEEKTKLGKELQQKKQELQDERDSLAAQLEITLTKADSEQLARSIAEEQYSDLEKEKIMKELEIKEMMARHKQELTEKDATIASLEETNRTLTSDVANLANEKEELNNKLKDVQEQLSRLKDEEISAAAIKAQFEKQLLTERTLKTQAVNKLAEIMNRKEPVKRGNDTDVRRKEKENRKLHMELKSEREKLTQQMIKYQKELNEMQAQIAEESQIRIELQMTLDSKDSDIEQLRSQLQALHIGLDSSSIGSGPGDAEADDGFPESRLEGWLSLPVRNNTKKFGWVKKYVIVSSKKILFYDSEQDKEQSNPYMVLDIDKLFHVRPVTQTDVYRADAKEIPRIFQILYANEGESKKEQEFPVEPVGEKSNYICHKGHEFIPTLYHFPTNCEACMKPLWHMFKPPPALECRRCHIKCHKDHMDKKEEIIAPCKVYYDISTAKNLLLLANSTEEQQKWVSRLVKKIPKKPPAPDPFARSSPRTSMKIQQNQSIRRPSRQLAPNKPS
METHOD_DESCRIPTION: Degradation inducing activity of ROCK2 protein in HUVEC cells, Western blotting (Simple Western JESS)
Type: cell-based
Parameters: endogenous in cells; host or cells: HUVEC (ATCC CRL-1730)
SETTINGS: HUVEC, 24 h, degradation rate at 1 µM
EXPERIMENTAL_ENDPOINT: inhibition at 1 µM

Study these solved cases before continuing.
- COMPOUND: "COC[C@H]1CN[C@H](C)CN1CC(=O)N1CC(C)(C)c2ncc(Cc3ccccc3OCCOCCOCCOCCOCCOCCOCCOCCN[C@H](C)c3ccc(C(=O)Nc4ccncc4)cc3)cc21 [Example 70]"
  EXPERIMENTAL_ENDPOINT: "inhibition at 1 µM"
  ENDPOINT_RESULT: "≥ 75%"
- COMPOUND: "COC[C@H]1CN[C@H](C)CN1CC(=O)N1CC(C)(C)c2ncc(Cc3ccccc3OCCOCCOCCOCCOCCOCCN[C@H](C)c3ccc(C(=O)Nc4ccncc4)cc3)cc21 [Example 68]"
  EXPERIMENTAL_ENDPOINT: "inhibition at 1 µM"
  ENDPOINT_RESULT: "≥ 75%"

Here's the next entry for you.
Problem: Provide only the value of recorded inhibition at 1 µM for COC[C@H]1CN[C@H](C)CN1CC(=O)N1CC(C)(C)c2nc(CN(C)CCOCCOCCOCCOCCOCCOCCOCCN[C@H](C)c3ccc(C(=O)Nc4ccncc4)cc3)c(Cc3ccc(F)cc3)cc21 [Example 28]
Solution: 50 to 75%

Attribution: patent EP4578856A1
